Item-by-item account of EC50
- TEST SYSTEM: human muscarinic M2 receptor (Homo sapiens, UniProt P08172)
- Construct: expressed in transfected cells
- Sequence (P08172 1-466): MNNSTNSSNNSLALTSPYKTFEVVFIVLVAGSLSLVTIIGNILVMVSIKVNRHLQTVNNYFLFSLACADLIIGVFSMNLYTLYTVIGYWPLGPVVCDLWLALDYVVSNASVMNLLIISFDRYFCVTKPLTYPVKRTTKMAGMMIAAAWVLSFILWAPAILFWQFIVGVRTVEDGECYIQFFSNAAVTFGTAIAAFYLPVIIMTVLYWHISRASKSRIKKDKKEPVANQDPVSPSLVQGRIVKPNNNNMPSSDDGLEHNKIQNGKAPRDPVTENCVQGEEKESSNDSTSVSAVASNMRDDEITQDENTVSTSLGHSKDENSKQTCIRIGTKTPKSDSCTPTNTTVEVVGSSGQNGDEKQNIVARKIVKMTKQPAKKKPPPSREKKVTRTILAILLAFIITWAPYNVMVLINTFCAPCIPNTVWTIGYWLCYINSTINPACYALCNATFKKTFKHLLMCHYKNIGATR
- TEST PROTOCOL: Alphascreen Surefire phospho-ERK1/2 functional assay, CHO cells expressing M2
- Type: cell-based
- CONDITIONS USED: agonist, CHO cells, phospho-ERK1/2; read-out: pEC50 M2 (converted)

# compound COC(=O)N1CC2(CCC(N3CCC(N4CCC[C@@H]4c4cnco4)CC3)C2)C1 (single isomer, unassigned) [Example 2-11 (Isomer 2)] ; its EC50 = > 20 µM

# compound CCOC(=O)N1CC2(CC(N3CCC(N4CCCC4c4ccon4)CC3)C2)C1 (racemic) [Example 1-5 (racemic)] ; its EC50 = > 20 µM

# compound CCOC(=O)N1CC2(CC(N3CCC(N4CCC[C@@H]4c4cnco4)CC3)C2)C1 ; its EC50 = > 20 µM

# compound CCOC(=O)N1CC2(CC(N3CCC(N4CCC[C@@H]4c4cn(C)c(=O)o4)CC3)C2)C1 ; its EC50 = > 20 µM

====

- TEST SYSTEM: human muscarinic M1 receptor (Homo sapiens, UniProt P11229)
- Construct: expressed in transfected cells
- TEST PROTOCOL: Alphascreen Surefire phospho-ERK1/2 functional assay, CHO cells expressing M1
- Format: cell-based
- CONDITIONS USED: agonist, CHO cells, phospho-ERK1/2; read-out: pEC50 M1 (converted)
READOUT NAME: EC50 (nM)
Answer in nM, number only, no unit symbol.

Below: 3 compounds and their reported EC50.
| COMPOUND | EC50, nM |
| --- | --- |
| CCOC(=O)N1CC2(CC(N3CCC([C@@H]4CCCN4C(=O)NC)CC3)C2)C1 | 794 |
| CCOC(=O)N1CC2(CCC(N3CCC(N4C(=O)CC[C@H]4CC)CC3)C2)C1 (mixture of isomers) [Example 2-9 (mixture of isomers)] | 39.8 |
| CCOC(=O)N1CC2(CCC(N3CCC(N4CCC[C@@H]4c4cnco4)CC3)C2)C1 (single isomer, unassigned) [Example 2-12 (Isomer 2)] | 31.6 |

Now for the compound whose EC50 we want.
# compound CCOC(=O)N1CC2(CC(N3CCC(N4C(=O)CC[C@H]4C)CC3)C2)C1 ; its EC50 = 1580

====

- TEST SYSTEM: human muscarinic M1 receptor (Homo sapiens)
- Construct: expressed in transfected cells
- TEST PROTOCOL: Alphascreen Surefire phospho-ERK1/2 functional assay, CHO cells expressing M1
- Type: cell-based
- CONDITIONS USED: agonist, CHO cells, phospho-ERK1/2; read-out: pEC50 M1 (converted)
Item-by-item account of EC50
Answer in µM, number only, no unit symbol.

Below: 5 compounds and their reported EC50.
| COMPOUND | EC50 (µM) |
| --- | --- |
| COC(=O)N1CC2(CC(N3CCC(c4nccn4C)CC3)C2)C1 | 3.16 |
| CCOC(=O)N1CC2(CCC(N3CCC(N4C(=O)CC[C@@H]4CC)CC3)C2)C1 (mixture of isomers) [Example 2-6 (mixture of isomers)] | 0.0158 |
| CCOC(=O)N1CC2(CCC(N3CCC(N4C(=O)CC[C@H]4C)CC3)C2)C1 (mixture of isomers) [Example 2-7 (mixture of isomers)] | 0.0398 |
| CCOC(=O)N1CC2(CCC(N3CCC(N4C(=O)CC[C@@H]4C)CC3)C2)C1 (mixture of isomers) [Example 2-5 (mixture of isomers)] | 0.158 |
| CCOC(=O)N1CC2(CCC(N3CCC(n4cccn4)CC3)C2)C1 (racemic) [Example 2-3 (racemic)] | 0.00398 |

# compound CCOC(=O)N1CC2(CC(N3CCC(N4CC(F)(F)C[C@@H]4CO)CC3)C2)C1 ; its EC50 = 0.251

# compound CCOC(=O)N1CC2(CC(N3CCC(N4CCC[C@@H]4c4cnco4)CC3)C2)C1 ; its EC50 = 0.631

====

- TEST SYSTEM: human muscarinic M1 receptor (Homo sapiens)
- Construct: expressed in transfected cells
- Sequence (P11229 1-460): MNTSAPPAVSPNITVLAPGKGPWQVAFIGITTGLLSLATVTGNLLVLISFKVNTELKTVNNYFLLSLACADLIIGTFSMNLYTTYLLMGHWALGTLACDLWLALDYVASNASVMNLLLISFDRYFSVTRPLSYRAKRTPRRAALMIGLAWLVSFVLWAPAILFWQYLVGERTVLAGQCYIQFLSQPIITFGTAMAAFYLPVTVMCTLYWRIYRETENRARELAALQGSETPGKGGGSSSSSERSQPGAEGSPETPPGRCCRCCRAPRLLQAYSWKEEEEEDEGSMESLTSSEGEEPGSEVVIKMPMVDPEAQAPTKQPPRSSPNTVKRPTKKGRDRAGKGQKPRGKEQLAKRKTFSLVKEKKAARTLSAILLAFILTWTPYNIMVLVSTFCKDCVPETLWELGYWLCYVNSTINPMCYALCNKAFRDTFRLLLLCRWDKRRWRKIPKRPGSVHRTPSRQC
- TEST PROTOCOL: Alphascreen Surefire phospho-ERK1/2 functional assay, CHO cells expressing M1
- Format: cell-based
- CONDITIONS USED: agonist, CHO cells, phospho-ERK1/2; read-out: pEC50 M1 (converted)
READOUT NAME: EC50

Below: 5 molecules and their reported EC50.
| MOLECULE | READOUT NAME | RESULT |
| --- | --- | --- |
| CCOC(=O)N1CC2(CC(N3CCC(N4C(=O)CC[C@@H]4C)CC3)C2)C1 [Example 1-8] | EC50 | 0.794 µM |
| CCOC(=O)N1CC2(CC(N3CCC(c4nccn4C)CC3)C2)C1 [Example 1-2] | EC50 | 10 µM |
| COC(=O)N1CC2(CCC(N3CCC(N4CCC[C@@H]4c4cnco4)CC3)C2)C1 (single isomer, unassigned) [Example 2-11 (Isomer 2)] | EC50 | > 20 µM |
| CCOC(=O)N1CC2(CCC(N3CCC(c4nccn4C)CC3)C2)C1 (racemic) [Example 2-2 (racemic)] | EC50 | 0.501 µM |
| CCOC(=O)N1CC2(CC(N3CCC(N4CCCC4c4ccon4)CC3)C2)C1 (racemic) [Example 1-5 (racemic)] | EC50 | > 20 µM |

# molecule COC(=O)N1CC2(CCC(N3CCC(c4nccn4C)CC3)C2)C1 (racemic) [Example 2-1 (racemic)] ; its EC50 = 0.126 µM

# molecule CCOC(=O)N1CC2(CCC(N3CCC(N4CC(F)(F)C[C@@H]4CO)CC3)C2)C1 (mixture of isomers) [Example 2-10 (mixture of isomers)] ; its EC50 = > 20 µM

====

Item-by-item account of log10(EC50)
- TEST SYSTEM: human muscarinic M4 receptor (Homo sapiens, UniProt P08173)
- Construct: expressed in transfected cells
- Sequence (P08173 whole entry): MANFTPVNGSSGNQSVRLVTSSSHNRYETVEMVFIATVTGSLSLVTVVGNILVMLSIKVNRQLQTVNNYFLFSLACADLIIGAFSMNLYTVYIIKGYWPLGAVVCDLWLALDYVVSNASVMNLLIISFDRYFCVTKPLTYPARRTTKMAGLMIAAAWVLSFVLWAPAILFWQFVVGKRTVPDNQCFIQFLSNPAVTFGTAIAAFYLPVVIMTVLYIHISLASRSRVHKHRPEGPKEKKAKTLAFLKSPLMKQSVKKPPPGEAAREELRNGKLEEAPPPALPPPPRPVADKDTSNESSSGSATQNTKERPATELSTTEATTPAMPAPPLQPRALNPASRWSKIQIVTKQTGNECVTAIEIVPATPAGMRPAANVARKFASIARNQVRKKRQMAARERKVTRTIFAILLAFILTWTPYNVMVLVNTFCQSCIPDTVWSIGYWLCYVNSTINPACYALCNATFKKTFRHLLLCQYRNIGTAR
- TEST PROTOCOL: Alphascreen Surefire phospho-ERK1/2 functional assay, CHO cells expressing M4
- Format: cell-based
- CONDITIONS USED: agonist, CHO cells, phospho-ERK1/2; read-out: pEC50 M4 (converted)
Note the log scale: values are log10 of EC50 expressed in nM.

Below: 5 compounds and their reported log10(EC50).
| COMPOUND | TEST SYSTEM | log10(EC50) |
| --- | --- | --- |
| COC(=O)N1CC2(CCC(N3CCC(N4CCC[C@@H]4c4cnco4)CC3)C2)C1 (single isomer, unassigned) [Example 2-11 (Isomer 2)] | human muscarinic M4 receptor (Homo sapiens, UniProt P08173) | 1.90 |
| CCOC(=O)N1CC2(CCC(N3CCC([C@@H]4CCCN4C(=O)NC)CC3)C2)C1 (mixture of isomers) [Example 2-4 (mixture of isomers)] | human muscarinic M4 receptor (Homo sapiens, UniProt P08173) | 0.50 |
| COC(=O)N1CC2(CC(N3CCC(c4nccn4C)CC3)C2)C1 | human muscarinic M4 receptor (Homo sapiens, UniProt P08173) | 2.50 |
| CCOC(=O)N1CC2(CC(N3CCC(c4nccn4C)CC3)C2)C1 | human muscarinic M4 receptor (Homo sapiens, UniProt P08173) | 3.10 |
| CCOC(=O)N1CC2(CC(N3CCC(N4CC(F)(F)C[C@@H]4CO)CC3)C2)C1 | human muscarinic M4 receptor (Homo sapiens, UniProt P08173) | 1.50 |

# compound CCOC(=O)N1CC2(CC(N3CCC(N4CCC[C@@H]4c4cnco4)CC3)C2)C1 ; its log10(EC50) = 1.10

# compound CCOC(=O)N1CC2(CCC(N3CCC(c4nccn4C)CC3)C2)C1 (racemic) [Example 2-2 (racemic)] ; its log10(EC50) = 1.50

# compound CCOC(=O)N1CC2(CCC(N3CCC(N4C(=O)CC[C@@H]4C)CC3)C2)C1 (mixture of isomers) [Example 2-5 (mixture of isomers)] ; its log10(EC50) = 1.10

# compound CCOC(=O)N1CC2(CCC(N3CCC(N4CC(F)(F)C[C@@H]4CO)CC3)C2)C1 (mixture of isomers) [Example 2-10 (mixture of isomers)] ; its log10(EC50) = 0.80

# compound CCOC(=O)N1CC2(CCC(N3CCC(N4C(=O)CC[C@@H]4CC)CC3)C2)C1 (mixture of isomers) [Example 2-6 (mixture of isomers)] ; its log10(EC50) = 0.90

# compound CCOC(=O)N1CC2(CCC(N3CCC(n4cccn4)CC3)C2)C1 (racemic) [Example 2-3 (racemic)] ; its log10(EC50) = 0.00

# compound CCOC(=O)N1CC2(CCC(N3CCC(N4C(=O)CC[C@H]4C)CC3)C2)C1 (mixture of isomers) [Example 2-7 (mixture of isomers)] ; its log10(EC50) = 0.60
